- System: Human immunodeficiency virus 2
- EXPERIMENTAL PROTOCOL: Antiviral activity against HIV2 isolate ROD infected in human CEM cells assessed as inhibition of virus-induced cytopathicity after 4 days by microscopic analysis
- Type: functional, organism-based
- MEASUREMENT CONDITIONS: Human immunodeficiency virus 2, ISOLATE ROD, CCRF-CEM, 96 h
Parameter EC50: see the listing below.

Here is how some compounds turned out for EC50.
>>> print(df.to_string())
                                 cpd_smiles   result
0  Cc1cc(C)cc(S(=O)(=O)c2c(C(=O)NCCN3CCCC3)[nH]c3ccc(Cl)c(F)c23)c1   > 2 µM
1  Cc1cc(C)cc(S(=O)(=O)c2c(C(=O)NCN3CCCCC3)[nH]c3ccc(Cl)cc23)c1   > 2 µM
2  Cc1cc(C)cc(S(=O)(=O)c2c(C(=O)NCN3CCCC3)[nH]c3ccc(Cl)cc23)c1   > 2 µM
3  O=C1Nc2ccc(Cl)cc2[C@@](C#CC2CC2)(C(F)(F)F)O1  > 10 µM
4  Cc1cc(C)cc(S(=O)(=O)c2c(C(=O)NCc3ccccc3)[nH]c3ccc([N+](=O)[O-])cc23)c1   > 2 µM
5  Cc1cc(C)cc(S(=O)(=O)c2c(C(=O)NCCn3cccc3)[nH]c3ccc([N+](=O)[O-])cc23)c1  > 50 µM

Now, please, on to the next compound.
Please look up its EC50: `Cc1cc(C)cc(S(=O)(=O)c2c(C(=O)NCN3CCCCC3)[nH]c3ccc(Cl)c(F)c23)c1` > 10 µM

---

- System: Human immunodeficiency virus 2
- EXPERIMENTAL PROTOCOL: Antiviral activity against HIV2 isolate ROD infected in human CEM cells assessed as inhibition of virus-induced cytopathicity after 4 days by microscopic analysis
- Type: functional, organism-based
- MEASUREMENT CONDITIONS: Human immunodeficiency virus 2, ISOLATE ROD, CCRF-CEM, 96 h
MEASURED PARAMETER: EC50

In [3]: df
Out[3]:
                                 cpd_smiles  result
0  Cc1cc(C)cc(S(=O)(=O)c2c(C(=O)NCCc3ccccc3)[nH]c3ccc(Br)cc23)c1  > 2 µM

Please look up its EC50: `Cc1cc(C)cc(S(=O)(=O)c2c(C(=O)NCCc3ccccc3)[nH]c3ccc(Cl)c(F)c23)c1` > 10 µM

One more compound: `Cc1cc(C)cc(S(=O)(=O)c2c(C(=O)NCCOc3ccccc3)[nH]c3ccc(Cl)cc23)c1` > 10 µM

One more compound: `Cc1cc(C)cc(S(=O)(=O)c2c(C(=O)NCCOc3ccccc3)[nH]c3ccc(Br)cc23)c1` > 25 µM

One more compound: `Cc1cc(C)cc(S(=O)(=O)c2c(C(=O)NCN3CCCC3)[nH]c3ccc([N+](=O)[O-])cc23)c1` 7.8 µM

---

Parameter pEC50: see the listing below.
- Test system: Human immunodeficiency virus 2
- EXPERIMENTAL PROTOCOL: Antiviral activity against HIV2 isolate ROD infected in human CEM cells assessed as inhibition of virus-induced cytopathicity after 4 days by microscopic analysis
- Format: functional, organism-based
- MEASUREMENT CONDITIONS: Human immunodeficiency virus 2, ISOLATE ROD, CCRF-CEM, 96 h
pEC50: −log10 of the molar value.

Please look up its pEC50: `Cc1cc(C)cc(S(=O)(=O)c2c(C(=O)NCCN3CCOCC3)[nH]c3ccc(Cl)c(F)c23)c1` < 5.00

One more compound: `Cc1ccnc2c1NC(=O)c1cccnc1N2C1CC1` < 5.00

One more compound: `Cc1cc(C)cc(S(=O)(=O)c2c(C(=O)NCCN3CCOCC3)[nH]c3ccc([N+](=O)[O-])cc23)c1` 5.31

---

- Tested on: Human immunodeficiency virus 2
- EXPERIMENTAL PROTOCOL: Antiviral activity against HIV2 isolate ROD infected in human CEM cells assessed as inhibition of virus-induced cytopathicity after 4 days by microscopic analysis
- Assay type: functional, organism-based
- MEASUREMENT CONDITIONS: Human immunodeficiency virus 2, ISOLATE ROD, CCRF-CEM, 96 h
Parameter EC50: see the listing below.

Here is how some molecules turned out for EC50.
                                 cpd_smiles     result
0  Cc1cc(C)cc(S(=O)(=O)c2c(C(=O)NCCN3CCCC3)[nH]c3ccc(Br)cc23)c1  > 2000 nM
1  Cc1cc(C)cc(S(=O)(=O)c2c(C(=O)NCN3CCCCC3)[nH]c3ccc([N+](=O)[O-])cc23)c1    7500 nM

Please look up its EC50: `Cc1cc(C)cc(S(=O)(=O)c2c(C(=O)NCCN3CCCC3)[nH]c3ccc(Cl)cc23)c1` > 2000 nM

One more molecule: `Cc1cc(C)cc(S(=O)(=O)c2c(C(=O)NCCc3ccccc3)[nH]c3ccc(Cl)cc23)c1` > 50000 nM

One more molecule: `Cc1cc(C)cc(S(=O)(=O)c2c(C(=O)NCCOc3ccccc3)[nH]c3ccc([N+](=O)[O-])cc23)c1` > 2000 nM

One more molecule: `Cc1cc(C)cc(S(=O)(=O)c2c(C(=O)NCCN3CCOCC3)[nH]c3ccc(Cl)cc23)c1` > 2000 nM
